- measured target: T1, 4H3697-AA
- T1 chain: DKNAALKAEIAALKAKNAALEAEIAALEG
- assay protocol: two-hybrid library CCmax;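 note: natural log of median RNA to DNA barcode read ratio; higher means stronger binding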
- measurement conditions: mean of both orientations
Entry flag: Fulfilled if interaction score reaches -1; Not fulfilled if it does not.

Answered cases to consult:
{"columns": ["binder", "label"],
 "data": [
  ["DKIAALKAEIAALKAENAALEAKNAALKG [4H2648-AA]", "Not fulfilled"],
  ["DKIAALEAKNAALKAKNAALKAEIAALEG [4H2553-AA]", "Not fulfilled"],
  ["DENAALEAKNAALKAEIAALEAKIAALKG [4H1478-AA]", "Not fulfilled"],
  ["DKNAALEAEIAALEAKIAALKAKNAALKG [4H3120-AA]", "Not fulfilled"],
  ["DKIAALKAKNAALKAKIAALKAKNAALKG [4H3056-AA]", "Fulfilled"]
]}

Query: Given the entry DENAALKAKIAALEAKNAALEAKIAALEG [4H1845-AA] , answer whether its interaction score meets or surpasses -1.
Result: Not fulfilled

Query: Given the entry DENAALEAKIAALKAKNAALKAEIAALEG [4H1401-AA] , answer whether its interaction score meets or surpasses -1.
Result: Fulfilled

Query: Given the entry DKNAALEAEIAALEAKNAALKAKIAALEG [4H3133-AA] , answer whether its interaction score meets or surpasses -1.
Result: Fulfilled
